molecules and their reported % inhibition male (individual replicates) R1
tested on: P. falciparum male gametocytes; assay: P. falciparum Dual Gamete Formation Assay (PfDGFA), male readout (exflagellation); assay type: cell-based, Plasmodium falciparum NF54; conditions: PfDGFA at 2µM, 24h preincubation with gametocytes; replicate R1
Give the value in % but do not write % after it.

Consider the following illustrative entries.
CN1CCN(c2cc3c(cc2Cl)CCN3C(=O)Nc2ccc(NC(=O)c3ccc(C(F)(F)F)cc3)cc2)CC1.Cl | 90.7
COc1ccc(CNC2CCN(C)CC2)cc1-c1ccc(S(=O)(=O)NCc2ccccc2)s1.O=C(O)C(F)(F)F | 86.4
CC(=NNC(=S)NCCc1ccccc1)c1ccccn1 | 70.1
O=C(CCC1CCCC1)N(Cc1ccc(-c2ccc(CNCCc3ccccc3)cc2)cc1)C1CCCNC1.O=C(O)C(F)(F)F (stereo not shown) | 62.4
c1ccc(Oc2ccc(Nc3ccnc(Nc4cccc(CNCCCN5CCOCC5)c4)n3)cc2)cc1 | 74.9

Inquiry: Name the recorded % inhibition male (individual replicates) R1 of the item CCN(CC)CCOc1ccc(C(O)(C#CC(O)(c2ccc(Br)cc2)c2ccc(OCCN(CC)CC)cc2)c2ccc(Br)cc2)cc1 (stereo not shown) in your answer.
Reply text: 76.2

Inquiry: Name the recorded % inhibition male (individual replicates) R1 of the item `CCCCOc1ccc(CNCCCCCCNCc2ccc(OCCCC)c3ccccc23)c2ccccc12.CS(=O)(=O)O` in your answer.
Reply text: 95.9

Inquiry: Name the recorded % inhibition male (individual replicates) R1 of the item `C=CCOc1ccc2ccccc2c1CNCCCCCCNCc1c(OCC=C)ccc2ccccc12.CS(=O)(=O)O` in your answer.
Reply text: 90.7

Inquiry: Name the recorded % inhibition male (individual replicates) R1 of the item `C#CCCOc1ccc2ccccc2c1CNCCCCCCNCc1c(OCCC#C)ccc2ccccc12` in your answer.
Reply text: 82.1

Inquiry: Name the recorded % inhibition male (individual replicates) R1 of the item CC(Cc1ccc(C(=O)Nc2ccc(CC(C)NCCc3cccc(Cl)c3)cc2)cc1)NCCc1ccc(C(F)(F)F)cc1 (stereo not shown) in your answer.
Reply text: 92.2

Inquiry: Name the recorded % inhibition male (individual replicates) R1 of the item `Br.CCCCc1ccc(CCNCCCCCCNCCc2ccc(O)c(O)c2)cc1` in your answer.
Reply text: 68.8

Inquiry: Name the recorded % inhibition male (individual replicates) R1 of the item `COc1ccc(-c2cnc3[nH]cc(-c4ccncc4)c3c2)cc1OC` in your answer.
Reply text: 70.5

----------
compounds and their reported % inhibition male (individual replicates) R3
system: P. falciparum male gametocytes; assay: P. falciparum Dual Gamete Formation Assay (PfDGFA), male readout (exflagellation); assay type: cell-based, Plasmodium falciparum NF54; settings: 2µM, 24h preincubation with gametocytes; replicate R3
Give the value in % but do not write % after it.

Consider the following illustrative entries.
CS(=O)(=O)O.FC(F)(F)COc1ccc2ccccc2c1CNCCCCCCNCc1c(OCC(F)(F)F)ccc2ccccc12 [TCMDC-137816] | 82.6
Cl.N=C(N)NN=Cc1c2ccc(Cl)cc2c(Cl)c2ccc(Cl)cc12 [TCMDC-137884] | 80.2

// below: % inhibition male (individual replicates) R3 requested for another compound
Inquiry: Name the recorded % inhibition male (individual replicates) R3 of the item CCCCCCC(N)c1ccc(OCCCOc2ccc(C(N)CCCCCC)cc2)cc1.Cl (stereo not drawn) [TCMDC-137621] in your answer.
Reply text: 82.0

----------
compounds and their reported % inhibition female (individual replicates) R1
test system: P. falciparum female gametocytes; assay: P. falciparum Dual Gamete Formation Assay (PfDGFA), female readout (Pfs25-positive female gametes); type: cell-based, Plasmodium falciparum NF54; conditions: PfDGFA at 2µM, 24h preincubation with gametocytes prior to induction of gametogenesis; replicate R1
Give the value in % but do not write % after it.

Cc1cc(F)ccc1-c1nc(Nc2ccncc2)c2ccn(C)c2n1 [TCMDC-141231] | 10.5
CC(Cc1ccc(COc2ccc(CC(CO)NCCc3cccc(Cl)c3)cc2)cc1)NCCc1cccc(Cl)c1.Cl (stereo not drawn) [TCMDC-139844] | -3.0
O=C(Nc1ccsc1)Nc1cccc(-c2ccc(-c3nc4cc(C(F)(F)F)ccc4[nH]3)cc2)c1 [TCMDC-133210] | 5.3

Inquiry: Name the recorded % inhibition female (individual replicates) R1 of the item Cc1ccc2ccncc2c1N [TCMDC-138025] in your answer.
Reply text: -5.1

Inquiry: Name the recorded % inhibition female (individual replicates) R1 of the item Cl.Nc1nc(N)c2c(ccc3nn(S(=O)(=O)N4CCCC4)cc32)n1 [TCMDC-137854] in your answer.
Reply text: -6.1

Inquiry: Name the recorded % inhibition female (individual replicates) R1 of the item CCc1cc2c3c(N)nc(N)nc3ccc2n1C(C)(C)C [TCMDC-137306] in your answer.
Reply text: -1.8

----------
Test system: P. falciparum male gametocytes
Assay: P. falciparum Dual Gamete Formation Assay (PfDGFA), male readout (exflagellation)
Type: cell-based, Plasmodium falciparum NF54
Conditions: Plasmodium falciparum; 2µM, 24h preincubation with gametocytes; average of replicates; read-out: Average inhibition male (%)
Experimental: […] The Pf DGFA was performed as described in Delves et al. 2016 [17]. […] Exflagellation was recorded by capturing 10 frames over 1 s under brightfield illumination using a x4 objective with a 1.5x zoom (effectively x6) attached to an automated Nikon Ti fluorescence microscope. […] The plates were then returned to the microscope and female gametes imaged at x6 using fluorescence microscopy. […]
RECORDED_METRIC: inhibition at 2 µM

CC(C)(CN)c1nc(-c2ccc(Cl)c(O)c2)c(-c2ccncc2)[nH]1.Cl [TCMDC-140369] | 95%

Inquiry: Name the recorded inhibition at 2 µM of the item Nc1cc(C=Cc2ccc([N+](=O)[O-])o2)nc2ccccc12 [TCMDC-142295] in your answer.
Reply text: 98.9%

Inquiry: Name the recorded inhibition at 2 µM of the item O=C(Cc1cccc(O)c1)NCC(Cc1ccc(O)cc1)c1ccccc1 (centres unmarked) [TCMDC-138482] in your answer.
Reply text: 97.3%

Inquiry: Name the recorded inhibition at 2 µM of the item CCCCNS(=O)(=O)c1ccc(NC(=O)c2cc([N+](=O)[O-])ccc2Cl)cc1 [TCMDC-124345] in your answer.
Reply text: 100%

Inquiry: Name the recorded inhibition at 2 µM of the item Br.c1cc(C2=NC3CCCCC3N2)ccc1OCCCOc1ccc(C2=NC3CCCCC3N2)cc1 (centres unmarked) [TCMDC-137803] in your answer.
Reply text: 96.1%

Inquiry: Name the recorded inhibition at 2 µM of the item COc1ccc(Nc2ncc(OC)c(Nc3ccccc3C(N)=O)n2)cc1N1CCN(C)CC1.O=CO [TCMDC-134149] in your answer.
Reply text: 94.7%

Inquiry: Name the recorded inhibition at 2 µM of the item c1ccc(-c2nc(Nc3nc4ccccc4[nH]3)[nH]c2-c2ccccc2)cc1 [TCMDC-139099] in your answer.
Reply text: 97.9%

----------
tested on: P. falciparum female gametocytes; assay: P. falciparum Dual Gamete Formation Assay (PfDGFA), female readout (Pfs25-positive female gametes); type: cell-based, Plasmodium falciparum NF54; details: Plasmodium falciparum; 2µM, 24h preincubation with gametocytes; replicate R2; read-out: % inhibition female (individual replicates) R2
compounds and their reported inhibition at 2 µM
Give the value in % but do not write % after it.

Consider the following illustrative entries.
Cc1cccc(Nc2nc(N[C@@H]3CCCNC3)nc3cc[nH]c(=O)c23)c1.O=C(O)C(F)(F)F | 4.6
O=C1SC(=Cc2ccc(O)c(O)c2)C(=O)N1c1ccccc1 | 17.5
C=CCNc1cc(-c2ccccn2)nc(-c2ccccn2)n1 | 30
Br.c1cc(Nc2nc(-c3ccc(-c4csc(Nc5ccncc5)n4)cc3)cs2)ccn1 | 87.3
O=C(O)C(F)(F)F.O=c1[nH]ccc2nc(N[C@@H]3CCCNC3)nc(Nc3ccc(S(=O)(=O)N4CCOCC4)cc3)c12 | 10.6

Inquiry: Name the recorded inhibition at 2 µM of the item `CN(C)CCCn1c(N)c(-c2nc3ccccc3[nH]2)c2nc(C#N)c(C#N)nc21` in your answer.
Reply text: 89.6

Inquiry: Name the recorded inhibition at 2 µM of the item `Oc1cccc(CNCCCN(Cc2ccccc2)c2ccccc2)c1` in your answer.
Reply text: 32

Inquiry: Name the recorded inhibition at 2 µM of the item Cc1ccc(C(C(=O)Nc2ccc(N3CCNCC3)c(Cl)c2)c2ccccc2)cc1 (centres unmarked) in your answer.
Reply text: 48.2

Inquiry: Name the recorded inhibition at 2 µM of the item `CS(=O)(=O)Cc1ccc(Nc2ncc(Cl)c(Nc3cccnc3C(N)=O)n2)cc1.Cl` in your answer.
Reply text: -1.5

Inquiry: Name the recorded inhibition at 2 µM of the item `COc1ccc(Nc2ncc(C#N)c(Nc3ccccc3C(N)=O)n2)cc1N1CCN(C)CC1.Cl` in your answer.
Reply text: -6.5

Inquiry: Name the recorded inhibition at 2 µM of the item `O=c1c(Br)ccccc1Br` in your answer.
Reply text: 94.7

Inquiry: Name the recorded inhibition at 2 µM of the item `CN(C)CCNCc1cccc(-c2ccc3c(Nc4ccc(Oc5ccccn5)cc4)ccnc3c2)c1` in your answer.
Reply text: 66.3

Inquiry: Name the recorded inhibition at 2 µM of the item `CN(C)CCOc1ccc(NC(=O)NC(C)(C)c2nc(-c3ccc(Cl)c(O)c3)c(-c3ccncc3)[nH]2)cc1.Cl` in your answer.
Reply text: 96.2

Inquiry: Name the recorded inhibition at 2 µM of the item `COCCCNC(=S)NN=C(C)c1ccccn1` in your answer.
Reply text: 91.5

Inquiry: Name the recorded inhibition at 2 µM of the item `O=C(c1ccc([N+](=O)[O-])o1)N1CCC(Cc2ccc(C(F)(F)F)cc2)CC1` in your answer.
Reply text: 62.7

Inquiry: Name the recorded inhibition at 2 µM of the item `CN1CCN(CCCNCc2cccc(-c3ccc(CNCCc4ccccc4)cc3)c2)CC1.O=C(O)C(F)(F)F` in your answer.
Reply text: 30.4

Inquiry: Name the recorded inhibition at 2 µM of the item `Cc1cc(Nc2ncc(C#N)c(Nc3ccccc3C(N)=O)n2)ccc1N1CCN(C)CC1.Cl` in your answer.
Reply text: -13.1

meta.source: paper PMC10584170
